# inhibition values compiled below
test_details: LFS_MB_P medulloblastoma growth inhibition, cell-based, chromothripsis tumors, cisplatin or BGB combos (AID 1671449);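 also: cells exposed for 96 hours; 0% = vehicle DMSO and 100% = killing by high DMSO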
experimental_conditions: LFS_MB_P medulloblastoma cells, at 0.5 µM, stronger effect = higher value
Number only, in %; omit the unit.

Check out these entries, answers already filled in.
>  <compound>
Nc1ccc2cc3ccc(N)cc3nc2c1

>  <inhibition (%)>
-32.2

$$$$
>  <compound>
CN1CCN(c2c(F)cc3c(=O)c(C(=O)O)cn4c3c2OCN4C)CC1

>  <inhibition (%)>
-17.7

$$$$
>  <compound>
COc1c2ccoc2cc2oc(=O)ccc12

>  <inhibition (%)>
-22.9

$$$$

State its inhibition: CC1(C(=O)O)CCC2(C)CCC3(C)C(=CC(=O)C4C5(C)CCC(OC(=O)CCC(=O)O)C(C)(C)C5CCC43C)C2C1 (stereo unspecified)
-21.3

Tell me its inhibition given `Nc1ncn([C@H]2C[C@H](O)[C@@H](CO)O2)c(=O)n1` as the entry.
6.06

Entry source: PubChem BioAssay
